Cited source: patent US5808109A

- Test system: C5a production
- assay-details: Inhibition of C5a production in human serum (aggregated IgG, RIA)
- Assay type: biochemical
- stated-conditions: concentration inhibiting C5a production 50% relative to control
measurement-name: IC50 (mM)

Take a look at these entries with their results.
Q. Quick one: IC50 of COc1ccc(C(=O)O)c(O)c1CC1=CCCCC1 [Compound 12a] ?
A. 8

Q. Next up: COc1ccc(C(=O)O)c2c1CC1(CCCCC1)O2 [Compound 11a]
A. 5

Q. Ok, now COc1ccc(C(=O)O)c2c1CC(C)(C1CC=C(C)CC1)O2 (single isomer, unassigned; (+)) [(+)-20a]
A. 8

Q. What about CC1CCC2C(C)(C)C(O)C(O)CC2(C)C12Cc1c(O)cc(C(=O)O)c(C=O)c1O2 (stereo not shown) [K-76 COONa, reference compound] ?
A. 3

A: COc1ccc(C(=O)O)c2c1CC(C)(C1CC=C(C)CC1)O2 (single isomer, unassigned; (-)) [(-)-20a]
B: COc1ccc(C=O)c(O)c1CC1=CCCCC1 [Compound 12b]
Q. Name the one with the greater IC50 value, either A or B as given. Please indicate the selected item by its label.
A. B

###

- assay-details: Viability of effector cells by trypan blue exclusion
- Assay type: cell-based
- stated-conditions: human, peripheral blood mononuclear cells, 6.4 mM
measurement-name: viability at 6400 µM (%)
Supply the numeric figure in %, leaving out any unit text.

Q. Please look up its viability at 6400 µM: COc1ccc(C(=O)O)c2c1CC1(CCCCC1)O2 [Compound 11a]
A. 5
